In this section we review reported pEC50 values for a set of compounds.
measurement target: 5-hydroxytryptamine receptor 2A (Canis lupus familiaris)
Sequence (O46635 whole entry): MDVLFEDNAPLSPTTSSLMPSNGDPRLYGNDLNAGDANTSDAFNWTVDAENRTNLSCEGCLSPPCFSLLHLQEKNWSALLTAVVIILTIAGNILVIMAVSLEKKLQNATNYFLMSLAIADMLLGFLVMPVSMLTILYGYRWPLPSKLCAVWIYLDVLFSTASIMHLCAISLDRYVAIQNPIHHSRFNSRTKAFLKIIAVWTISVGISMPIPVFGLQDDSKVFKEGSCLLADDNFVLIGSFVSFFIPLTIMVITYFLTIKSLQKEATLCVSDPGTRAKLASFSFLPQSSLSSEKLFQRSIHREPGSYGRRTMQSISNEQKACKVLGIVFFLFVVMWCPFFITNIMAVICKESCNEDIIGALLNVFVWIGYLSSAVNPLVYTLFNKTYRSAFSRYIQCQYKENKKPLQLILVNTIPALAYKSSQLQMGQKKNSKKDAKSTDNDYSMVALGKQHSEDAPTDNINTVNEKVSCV
protocol summary: Agonist activity at 5-HT2A receptor in dog bladder strip
pEC50: −log10 of the molar value.

smiles	measurement target	pEC50
Cc1nnc2c3c(nc(Cc4ccccc4)n12)CCNCC3	5-hydroxytryptamine receptor 2A (Canis lupus familiaris)	5.80
Cc1nc2c3c(nc(Cc4ccccc4)n2n1)CCNCC3	5-hydroxytryptamine receptor 2A (Canis lupus familiaris)	5.74

----------
Test system: MDR1
protocol summary: in vitro
setup conditions: dog, MDCK-MDR1
Description: Apparent membrane permeability across apical to basolateral side of MDR1 expressing MDCK cells
property measured: Papp A→B (×10⁻⁶ cm/s)

smiles	measurement target	property measured	numeric readout
N#Cc1ccc(Cn2nc3c(cc2=O)CCNCC3)cc1	MDR1	Papp A→B	11
c1ccc(Cn2cc3c(n2)CCNCC3)cc1	MDR1	Papp A→B	27
O=c1c2c([nH]n1Cc1ccccc1)CCNCC2	MDR1	Papp A→B	2
c1ccc(COc2n[nH]c3c2CCNCC3)cc1	MDR1	Papp A→B	24
O=c1cc2c(nn1Cc1cccc(Cl)c1)CCNCC2	MDR1	Papp A→B	32
O=c1cc2c(nn1Cc1ccccc1)CCNCC2	MDR1	Papp A→B	25
Cn1c2c(c(=O)n1Cc1ccccc1)CCNCC2	MDR1	Papp A→B	13

----------
measurement target: Beta-2 adrenergic receptor (Homo sapiens, UniProt P07550)
Sequence (P07550 whole entry): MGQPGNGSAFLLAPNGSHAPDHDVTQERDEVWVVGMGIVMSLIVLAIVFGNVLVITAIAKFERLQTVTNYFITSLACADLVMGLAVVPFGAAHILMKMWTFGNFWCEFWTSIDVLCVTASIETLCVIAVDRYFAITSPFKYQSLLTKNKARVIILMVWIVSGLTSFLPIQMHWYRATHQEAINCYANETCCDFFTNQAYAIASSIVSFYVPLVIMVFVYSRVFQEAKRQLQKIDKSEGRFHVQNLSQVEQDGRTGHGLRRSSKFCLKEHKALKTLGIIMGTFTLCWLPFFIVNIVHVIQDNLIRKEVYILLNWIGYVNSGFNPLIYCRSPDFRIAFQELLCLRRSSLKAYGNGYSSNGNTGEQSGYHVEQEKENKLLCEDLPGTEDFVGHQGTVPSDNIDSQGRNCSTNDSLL

smiles	measurement target	unit label	Ki
Cc1nc2c3c(nc(Cc4ccccc4)n2n1)CCNCC3	Beta-2 adrenergic receptor (Homo sapiens, UniProt P07550)	µM	7.6

----------
protocol summary: physchem
setup conditions: buffer, pH 7.4
Description: Lipophilicity, log D at pH 7.4
In this section we review reported logD values for a set of molecules.
property measured: logD

smiles	property measured	numeric readout
Cn1c2c(c(=O)n1Cc1ccccc1)CCNCC2	logD	0
CC(C)CCn1nc2c(cc1=O)CCNCC2	logD	0.6
O=c1cc2c(nn1Cc1ccccc1)CCNCC2	logD	0.3

----------
Reported EC50 for target or system 5-hydroxytryptamine receptor 2B (Homo sapiens), by entry.
property measured: EC50 (nM)

smiles	property measured	value relation sign	numeric readout
O=c1cc2c(nn1-c1ccccc1)CCNCC2	EC50	>	10000
Cn1c2c(c(=O)n1Cc1ccccc1)CCNCC2	EC50	>	10000
O=c1cc2c(nn1Cc1ccc(Cl)cc1)CCNCC2	EC50	=	267
O=c1cc2c(nn1Cc1ccc(C3CC3)cc1)CCNCC2	EC50	=	84
O=c1cc2c(nn1Cc1ccccc1OC(F)(F)F)CCNCC2	EC50	=	142
O=c1cc2c(nn1Cc1ccc(C(F)(F)F)cc1)CCNCC2	EC50	=	473
O=c1cc2c(nn1Cc1ccccc1)CCNCC2	EC50	=	358
